Test system: STING signaling pathway
Assay: Cytokine secretion in PBMC (ELISA)
Type: cell-based
Conditions: 6 h, read-out: IL-6 EC50
recorded-metric: EC50

CCc1nc(C)sc1C(=O)Nc1nc2cc(C(N)=O)cc(OCCCN3CCN(C(=O)OCCCN)CC3)c2n1C/C=C/Cn1c(NC(=O)c2cc(C)nn2CC)nc2cc(C(N)=O)cc(SC)c21: 100 to 1000 nM

* * *

# key: entry, value: CC50 at 6 h
Test: Cytotoxicity in PBMC (CellTiter-Glo)
Format: cell-based
Conditions: PBMC cells, CTG
recorded-metric: CC50 at 6 h

CCc1nc(C)sc1C(=O)Nc1nc2cc(C(N)=O)cc(OCCCN3CCN(C(=O)CCN)CC3)c2n1C/C=C/Cn1c(NC(=O)c2cc(C)nn2CC)nc2cc(C(N)=O)cc(SC)c21 [Example 1]: > 25 µM
CCc1nc(C)sc1C(=O)Nc1nc2cc(C(N)=O)cc(OCCCN3CCN(C(=O)C(C)(C)CCN)CC3)c2n1C/C=C/Cn1c(NC(=O)c2cc(C)nn2CC)nc2cc(C(N)=O)cc(SC)c21 [Example 3]: > 40 µM
CCc1nc(C)sc1C(=O)Nc1nc2cc(C(N)=O)cc(OC)c2n1C/C=C/Cn1c(NC(=O)c2cc(C)nn2CC)nc2cc(C(N)=O)cc(OCCCN3CCNCC3)c21 [Example 20]: > 50 µM
CCc1nc(C)sc1C(=O)Nc1nc2cc(C(N)=O)cc(OCCCN3CCN(C(=O)OCCCN)CC3)c2n1C/C=C/Cn1c(NC(=O)c2cc(C)nn2CC)nc2cc(C(N)=O)cc(SC)c21 [Example 10]: > 40 µM
CCc1nc(C)sc1C(=O)Nc1nc2cc(C(N)=O)cc(OCCCN3CCN(C(=O)CCCNC)CC3)c2n1C/C=C/Cn1c(NC(=O)c2cc(C)nn2CC)nc2cc(C(N)=O)cc(SC)c21 [Example 2]: > 40 µM
CCc1nc(C)sc1C(=O)Nc1nc2cc(C(N)=O)cc(SC)c2n1C/C=C/Cn1c(NC(=O)c2cc(C)nn2CC)nc2cc(C(N)=O)cc(OCCCN3CCN(C(=O)OCCCC4CCNCC4)CC3)c21 [Example 13]: > 50 µM
CCc1nc(C)sc1C(=O)Nc1nc2cc(C(N)=O)cc(SC)c2n1C/C=C/Cn1c(NC(=O)c2c(F)c(C)nn2CC)nc2cc(C(N)=O)cc(OCCCN3CCN(C(=O)OCCCC4CCNCC4)CC3)c21 [Example 14]: > 50 µM

* * *

Each entry below carries its reported pEC50.
Test system: STING signaling pathway
Test: Cytokine secretion in PBMC (ELISA)
Type: cell-based
Details: 6 h, ELISA of supernatant, read-out: TNF-α EC50
pEC50: −log10 of the molar value.
recorded-metric: pEC50

CCc1nc(C)sc1C(=O)Nc1nc2cc(C(N)=O)cc(SC)c2n1C/C=C/Cn1c(NC(=O)c2cc(C)nn2CC)nc2cc(C(N)=O)cc(OCCCN3CCN(C(=O)OCCCC4CCNCC4)CC3)c21: > 7.00
CCc1nc(C)sc1C(=O)Nc1nc2cc(C(N)=O)cc(SC)c2n1C/C=C/Cn1c(NC(=O)c2c(F)c(C)nn2CC)nc2cc(C(N)=O)cc(OCCCN3CCN(C(=O)OCCCC4CCNCC4)CC3)c21: > 7.00
CCc1nc(C)sc1C(=O)Nc1nc2cc(C(N)=O)cc(OCCCN3CCN(C(=O)OCCCNC(=O)OCc4ccc(NC(=O)[C@H](CCCNC(N)=O)NC(=O)[C@@H](NC(=O)CCCCCN5C(=O)C=CC5=O)C(C)C)cc4)CC3)c2n1C/C=C/Cn1c(NC(=O)c2cc(C)nn2CC)nc2cc(C(N)=O)cc(SC)c21: > 7.00
CCc1nc(C)sc1C(=O)Nc1nc2cc(C(N)=O)cc(OCCCN3CCNCC3)c2n1C/C=C/Cn1c(NC(=O)c2cc(C)nn2CC)nc2cc(C(N)=O)cc(OC)c21: > 7.00
CCc1nc(C)sc1C(=O)Nc1nc2cc(C(N)=O)cc(OCCCN3CCN(C(=O)C(C)(C)CCN)CC3)c2n1C/C=C/Cn1c(NC(=O)c2cc(C)nn2CC)nc2cc(C(N)=O)cc(SC)c21: 6.00 to 7.00
CCc1nc(C)sc1C(=O)Nc1nc2cc(C(N)=O)cc(OCCCN3CCN(C(=O)CCN)CC3)c2n1C/C=C/Cn1c(NC(=O)c2cc(C)nn2CC)nc2cc(C(N)=O)cc(SC)c21: 6.00 to 7.00
CCc1nc(C)sc1C(=O)Nc1nc2cc(C(N)=O)cc(OC)c2n1C/C=C/Cn1c(NC(=O)c2cc(C)nn2CC)nc2cc(C(N)=O)cc(OCCCN3CCNCC3)c21: 6.00 to 7.00

* * *

Tested on: STING signaling pathway
Assay: THP1-Blue ISG reporter assay (QUANTI-Blue)
Format: cell-based, human
Settings: Homo sapiens; THP1-Blue ISG cells, 18 h incubation, QUANTI-Blue OD 620-655 nm; read-out: EC50
pEC50: −log10 of the molar value.
recorded-metric: pEC50

CCc1nc(C)sc1C(=O)Nc1nc2cc(C(N)=O)cc(OCCCN3CCNCC3)c2n1C/C=C/Cn1c(NC(=O)c2cc(C)nn2CC)nc2cc(C(N)=O)cc(OC)c21: > 7.00
CCc1nc(C)sc1C(=O)Nc1nc2cc(C(N)=O)cc(OCCCN3CCN(C(=O)CCCNC)CC3)c2n1C/C=C/Cn1c(NC(=O)c2cc(C)nn2CC)nc2cc(C(N)=O)cc(SC)c21: > 7.00
CCc1nc(C)sc1C(=O)Nc1nc2cc(C(N)=O)cc(SC)c2n1C/C=C/Cn1c(NC(=O)c2cc(C)nn2CC)nc2cc(C(N)=O)cc(OCCCN3CCN(C(=O)OCCCC4CCNCC4)CC3)c21: > 7.00
CCc1nc(C)sc1C(=O)Nc1nc2cc(C(N)=O)cc(OCCCN3CCN(C(=O)C(C)(C)CCN)CC3)c2n1C/C=C/Cn1c(NC(=O)c2cc(C)nn2CC)nc2cc(C(N)=O)cc(SC)c21: > 7.00
